Biological target: GTP-KRASG12D::PI3Kα (Homo sapiens, UniProt P01116, G12D)
Construct: KRAS (G12D) 1-169, N-terminal 6His-tag, C-terminal avi-tag was from Xtal; 6His-tag (N); purchased Xtal BioStructures, Inc
Assay: Alpha Screen PPI assay
Type: biochemical
Details: duplicate, read-out: IC50 GTP-KRASG12D::PI3K
MEASURED_QUANTITY: IC50
Be sure to follow the number with its unit.

Answer with IC50 of Cn1cnc(Cn2ccc3ccc(CNCc4[nH]c5ccccc5c4[C@H]4NC(=O)c5ccc(O)cc54)cc32)c1 measured for GTP-KRASG12D::PI3Kα (Homo sapiens, UniProt P01116, G12D).
500 nM

----------
Molecular target: GCP-KRASG12D (Homo sapiens, UniProt P01116, G12D)
Sequence (P01116 1-169 isoform P01116-2 G12D): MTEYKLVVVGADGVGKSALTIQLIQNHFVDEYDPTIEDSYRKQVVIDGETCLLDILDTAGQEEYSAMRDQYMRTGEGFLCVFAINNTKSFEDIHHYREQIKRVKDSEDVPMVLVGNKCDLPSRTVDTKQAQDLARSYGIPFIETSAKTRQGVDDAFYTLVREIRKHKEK
Assay: ITC
Format: binding
Settings: read-out: KD GTP-KRAS^G12D as measured by ITC
MEASURED_QUANTITY: pKd
Just so you know, pKd here is -log10 of the concentration in molar units; reply with that number alone.

Give pKd for Cn1cnc(Cn2ccc3ccc(CNCc4[nH]c5ccccc5c4[C@H]4NC(=O)c5ccc(O)cc54)cc32)c1
6.12

----------
Target: GTP-KRASG12D::SOS1 (Homo sapiens, UniProt P01116, G12D)
Experiment: Alpha Screen PPI assay
Type: biochemical
Settings: duplicate
MEASURED_QUANTITY: pIC50
Just so you know, pIC50 here is -log10 of the concentration in molar units; reply with that number alone.

Give pIC50 for Cn1cnc(Cn2ccc3ccc(CNCc4[nH]c5ccccc5c4[C@H]4NC(=O)c5ccc(O)cc54)cc32)c1 [Compound 1]
6.31

----------
Target: GDP-KRASG12D (Homo sapiens, UniProt P01116, G12D)
Assay: ITC
Assay type: binding
Conditions: 25°C
Please respond with reported Kd for every item in the list.
Reply with just the number (in µM).

Answer with Kd of Cn1cnc(Cn2ccc3ccc(CNCc4[nH]c5ccccc5c4[C@H]4NC(=O)c5ccc(O)cc54)cc32)c1 measured for GDP-KRASG12D (Homo sapiens, UniProt P01116, G12D).
2

Answer with Kd of CN(C)Cc1[nH]c2ccccc2c1[C@H]1NC(=O)c2ccc(O)cc21 measured for GDP-KRASG12D (Homo sapiens, UniProt P01116, G12D).
29

----------
Biological target: KRAS (Homo sapiens, UniProt P01116, G12D)
Assay: Alpha Screen PPI assays, summary over KRAS interactions (SOS1, CRAF, PI3Kα)
Conditions: interaction not given
MEASURED_QUANTITY: IC50

Give IC50 for Cn1cnc(Cn2ccc3ccc(CNCc4[nH]c5ccccc5c4[C@H]4NC(=O)c5ccc(O)cc54)cc32)c1
450 nM

----------
Target: GTP-KRASG12D::SOS1 (Homo sapiens, UniProt P01116, G12D)
Assay: KRASG12D::SOS1 GTP TR-FRET assay
MEASURED_QUANTITY: pIC50
Just so you know, pIC50 here is -log10 of the concentration in molar units; reply with that number alone.

Give pIC50 for CN(C)Cc1[nH]c2ccccc2c1[C@H]1NC(=O)c2ccc(O)cc21
4.48

----------
Molecular target: GDP-KRASG12D::SOS1 (Homo sapiens, UniProt P01116, G12D)
Construct: KRAS (G12D) 1-169, N-terminal 6His-tag, C-terminal avi-tag was from Xtal; 6His-tag (N)
Sequence (P01116 1-169 isoform P01116-2 G12D): as above
Experiment: Alpha Screen PPI assay
Conditions: Alpha Screen, duplicate
MEASURED_QUANTITY: pIC50
Just so you know, pIC50 here is -log10 of the concentration in molar units; reply with that number alone.

Answer with pIC50 of Cn1cnc(Cn2ccc3ccc(CNCc4[nH]c5ccccc5c4[C@H]4NC(=O)c5ccc(O)cc54)cc32)c1 measured for GDP-KRASG12D::SOS1 (Homo sapiens, UniProt P01116, G12D).
6.59

----------
Target: GCP-KRASG12D (Homo sapiens, UniProt P01116, G12D)
Test: ITC
Type: binding
Details: 25°C, read-out: KD(ITC) GCP-KRASG12D
MEASURED_QUANTITY: Kd (nM)
Reply with just the number (in nM).

Give Kd for Cn1cnc(Cn2ccc3ccc(CNCc4[nH]c5ccccc5c4[C@H]4NC(=O)c5ccc(O)cc54)cc32)c1 [Compound 1]
740

----------
The following are reported Kd results, target or system GDP-HRASwt (Homo sapiens).
Reply with just the number (in µM).

Give Kd for Cn1cnc(Cn2ccc3ccc(CNCc4[nH]c5ccccc5c4[C@H]4NC(=O)c5ccc(O)cc54)cc32)c1
2.5

Give Kd for CN(C)Cc1[nH]c2ccccc2c1[C@H]1NC(=O)c2ccc(O)cc21
54

----------
Target: GCP-KRASG12D (Homo sapiens, UniProt P01116, G12D)
Experiment: KD(HSQC) NMR
Format: binding
MEASURED_QUANTITY: Kd (µM)
Reply with just the number (in µM).

Give Kd for CN(C)Cc1[nH]c2ccccc2c1[C@H]1NC(=O)c2ccc(O)cc21 [Compound 18]
17

----------
MEASURED_QUANTITY: pIC50
Just so you know, pIC50 here is -log10 of the concentration in molar units; reply with that number alone.

Answer with pIC50 of Cn1cnc(Cn2ccc3ccc(CNCc4[nH]c5ccccc5c4[C@H]4NC(=O)c5ccc(O)cc54)cc32)c1 measured for GTP-KRASwt::CRAF (Homo sapiens).
6.13

----------
Please respond with reported pKd for every item in the list.
Molecular target: GDP-NRASwt (Homo sapiens, UniProt P01111, C118S)
Sequence (P01111 1-172 C118S): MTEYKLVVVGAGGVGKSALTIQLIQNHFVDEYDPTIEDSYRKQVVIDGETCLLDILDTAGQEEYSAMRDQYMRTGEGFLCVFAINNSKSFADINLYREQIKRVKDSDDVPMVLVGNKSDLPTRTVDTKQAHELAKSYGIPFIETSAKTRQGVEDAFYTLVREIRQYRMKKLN
Test: ITC
Conditions: 25°C
Just so you know, pKd here is -log10 of the concentration in molar units; reply with that number alone.

Give pKd for Cn1cnc(Cn2ccc3ccc(CNCc4[nH]c5ccccc5c4[C@H]4NC(=O)c5ccc(O)cc54)cc32)c1
5.08

Give pKd for CN(C)Cc1[nH]c2ccccc2c1[C@H]1NC(=O)c2ccc(O)cc21
4.48

----------
Target: GTP-KRASG12C::SOS1 (Homo sapiens, UniProt P01116, C118S/C51S/C80L/G12C)
Sequence (P01116 1-169 isoform P01116-2 G12C/C51S/C80L/C118S): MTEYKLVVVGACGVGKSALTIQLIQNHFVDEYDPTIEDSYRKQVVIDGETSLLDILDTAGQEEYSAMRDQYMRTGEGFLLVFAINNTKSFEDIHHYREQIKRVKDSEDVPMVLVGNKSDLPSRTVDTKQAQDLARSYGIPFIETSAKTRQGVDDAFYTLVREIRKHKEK
Assay: Alpha Screen PPI assay
Conditions: duplicate
MEASURED_QUANTITY: pIC50
Just so you know, pIC50 here is -log10 of the concentration in molar units; reply with that number alone.

Give pIC50 for Cn1cnc(Cn2ccc3ccc(CNCc4[nH]c5ccccc5c4[C@H]4NC(=O)c5ccc(O)cc54)cc32)c1
6.44
